- System: RIOK3;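 further: KINOMEscan kinase panel screen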
- test context: concentration: 1 μM, replicates: in singlicate; n = 1
parameter measured: %Inh (%)
Give bare numbers, in %.

CCn1cnc2c(NCc3ccccc3)ncnc21 [SKF-96418] ... 0
Cc1ccc(C)c(NC(=O)Nc2ccc(C)c(-c3ccc(C(=O)Nc4ccncc4)cc3)c2)c1 [GSK1398473] ... 0
O=C(Nc1n[nH]c2cc(-c3cccs3)ccc12)C1CC1 [SB-731284] ... 82
Cc1cc(-c2c(-c3ccc(F)cc3)ncn2CCCN2CCOCC2)nc(N)n1 [SB-222517] ... 11
COc1ccc(C)c(Nc2ccnc(Nc3ccc(-c4cnc[nH]4)cc3)n2)c1.Cl [GW784041] ... 34

Each molecule below has a reported value. Please supply its %Inh.
1. COC(=O)Nc1nc2cc(Oc3ccc(NC(=O)Nc4cccc(SC)c4)cc3)ccc2[nH]1.Cl [GW697999]
2. O=C(Nc1n[nH]c2nc(-c3ccccc3O)ccc12)C1CC1 [SB-711880]
3. CS(=O)(=O)c1cccc(CNc2nc(Nc3ccc4c(c3)CCC(=O)N4)ncc2C(F)(F)F)c1
4. Cn1cc(-c2cnc(N)c3c(-c4ccc5c(c4)CCN5C(=O)Cc4ccccc4)csc23)cn1 [GSK2593074]
5. CCn1c(-c2nonc2N)nc2c(-c3ccccc3)ncc(OCCCN)c21.O=C(O)C(F)(F)F.O=C(O)C(F)(F)F [GSK260205]
6. CN(c1ccc2c(c1)nc(NCc1ccccc1)n2C)c1ccnc(Nc2ccc(CS(C)(=O)=O)cc2)n1.Cl [GW811603]

Output line:
2
33
59
6
0
44

Below are some molecules; for each one, tell me its %Inh.
1. COc1cccc2c(-c3ccncc3)c(-c3ccc(F)cc3)nn12 [GW468513]
2. COc1ccc(C2=C(Nc3cccc(O)c3)C(=O)NC2=O)cc1 [SB-390766]
3. Cn1cc(-c2ccc3c(c2)CCN3C(=O)Cc2cc(F)cc(C(F)(F)F)c2)c2c(N)ncnc21 [GSK2635225]
4. COc1cccc(C2=C(Nc3cccc(O)c3)C(=O)NC2=O)c1 [SB-390771]

Output line:
1. 26
2. 0
3. 26
4. 17

# map each molecule to its %Inh
1. O=C(O)C(F)(F)F.O=c1[nH]ccc2nc(N[C@@H]3CCNC3)nc(Nc3ccc4c(c3)S(=O)(=O)CC4)c12 [GSK2181306]
2. O=C(O)C(F)(F)F.O=c1[nH]ccc2nc(N[C@@H]3CCNC3)nc(Nc3cc(Cl)cc(Cl)c3)c12 [GSK2188764]

Output line:
[92.9, 100]
